# MEASURED_ON: Recombinant human M3 receptor (Homo sapiens, UniProt P20309)
# Construct: expressed in transfected cells; host or cells: CHO-K1 cells (membranes prepared from them)
# Sequence (P20309 whole entry): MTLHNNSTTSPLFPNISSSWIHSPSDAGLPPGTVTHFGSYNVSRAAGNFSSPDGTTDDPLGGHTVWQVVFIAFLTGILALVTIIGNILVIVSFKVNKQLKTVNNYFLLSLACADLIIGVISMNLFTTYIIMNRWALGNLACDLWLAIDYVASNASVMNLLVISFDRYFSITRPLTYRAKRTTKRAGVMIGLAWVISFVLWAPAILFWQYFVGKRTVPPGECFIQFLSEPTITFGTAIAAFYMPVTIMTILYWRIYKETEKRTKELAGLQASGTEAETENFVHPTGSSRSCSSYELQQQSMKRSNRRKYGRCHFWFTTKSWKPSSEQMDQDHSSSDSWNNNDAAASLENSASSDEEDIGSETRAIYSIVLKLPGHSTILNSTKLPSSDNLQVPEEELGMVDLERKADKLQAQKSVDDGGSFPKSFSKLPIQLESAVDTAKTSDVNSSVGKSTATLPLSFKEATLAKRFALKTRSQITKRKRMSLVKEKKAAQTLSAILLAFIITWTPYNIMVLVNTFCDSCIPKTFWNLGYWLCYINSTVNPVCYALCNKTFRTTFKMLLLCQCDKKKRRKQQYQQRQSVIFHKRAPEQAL
# MEASUREMENT_PROTOCOL: Muscarinic Receptor Radioligand Binding Assay ([3H]-NMS, SPA)
pKi: −log10 of the molar value.
PROPERTY_MEASURED: pKi

[[record]]
compound = "O[C@](c1ccccc1)(c1cc(C[N+]23CCC(CC2)[C@@H](Oc2cccc(F)c2)C3)on1)C1CCCCC1 [Example 3]"
value_reported = 9.18


----------
# key: entry, value: Ki
# MEASURED_ON: Recombinant human M3 receptor (Homo sapiens, UniProt P20309)
# Construct: expressed in transfected cells; host or cells: CHO-K1 cells (membranes prepared from them)
# MEASUREMENT_PROTOCOL: Muscarinic Receptor Radioligand Binding Assay ([3H]-NMS, SPA)
# APPLIED_CONDITIONS: CHO-K1 cell membranes, [3H]-NMS, 16 hours at ambient temperature, 1% DMSO; read-out: Ki in the M3 binding assay
PROPERTY_MEASURED: Ki (nM)

[[record]]
smiles_data = "O[C@](c1ccccc1)(c1cc(C[N+]23CCC(CC2)[C@@H](Oc2ccc(F)cc2)C3)on1)C1CCCCC1"
property_measured = "Ki"
unit_label = "nM"
value_reported = 0.8

[[record]]
smiles_data = "Cc1ccc(O[C@H]2C[N+]3(Cc4cc(C(O)(c5ccccc5)c5ccccc5)no4)CCC2CC3)cc1F"
property_measured = "Ki"
unit_label = "nM"
value_reported = 0.4

[[record]]
smiles_data = "OC(c1ccccc1)(c1ccccc1)c1cc(C[N+]23CCC(CC2)[C@@H](Sc2cccc(F)c2)C3)on1"
property_measured = "Ki"
unit_label = "nM"
value_reported = 0.15

[[record]]
smiles_data = "O[C@](c1ccccc1)(c1nnc(C[N+]23CCC(CC2)[C@@H](Oc2ccc(F)cc2)C3)o1)C1CCCCC1"
property_measured = "Ki"
unit_label = "nM"
value_reported = 0.7

